Tested on: Escherichia coli TOP10
Assay: shrunken log2 fold change of peptide-encoding DNA abundance (4.5 h post-induction vs induction); higher = less antimicrobial activity (less host growth inhibition)
Conditions: time post-induction: 4.5 h; library: site-saturation at positions 5, 18, 19, 20
The following sequences are shown together with reported shrunken log2 fold change values.
Would you mind answering with just the numeric figure?

Which shrunken log2 fold change reading was recorded for the sequence `RRIRKRPPRLPRPRPRPLWHPRP` ?
0.0951

Which shrunken log2 fold change reading was recorded for the sequence `RRIRDRPPRLPRPRPRPVMHPRP` ?
-0.112

Which shrunken log2 fold change reading was recorded for the sequence `RRIRDRPPRLPRPRPRPDQQPRP` ?
0.0408

* * *

Test system: Escherichia coli TOP10;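 also: peptides expressed intracellularly from a pBAD plasmid library in pooled LB shake-flask culture, induced with 0.3% L-arabinose, DNA abundance read by NGS, three biological replicates, DESeq2 with apeglm shrinkage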
Test: shrunken log2 fold change of peptide-encoding DNA abundance (4.5 h post-induction vs induction); higher = less antimicrobial activity (less host growth inhibition)
Conditions: time post-induction: 4.5 h; library: site-saturation at positions 5, 18, 19, 20
Label rule, in plain words: shrunken log2 fold change of 0.3 and up is Satisfied, under 0.3 is Not satisfied.

Could you please find out whether `RRIRARPPRLPRPRPRPFGDPRP` has shrunken log2 fold change that meets 0.3 or exceeds it?
Satisfied

Could you please find out whether `RRIRMRPPRLPRPRPRPEHNPRP` has shrunken log2 fold change that meets 0.3 or exceeds it?
Satisfied

Could you please find out whether `RRIRRRPPRLPRPRPRPPKGPRP` has shrunken log2 fold change that meets 0.3 or exceeds it?
Satisfied

Could you please find out whether `RRIRGRPPRLPRPRPRPKDNPRP` has shrunken log2 fold change that meets 0.3 or exceeds it?
Satisfied

Could you please find out whether `RRIRFRPPRLPRPRPRPPKPPRP` has shrunken log2 fold change that meets 0.3 or exceeds it?
Satisfied

Could you please find out whether `RRIRARPPRLPRPRPRPVIWPRP` has shrunken log2 fold change that meets 0.3 or exceeds it?
Satisfied

Could you please find out whether `RRIRMRPPRLPRPRPRPQMMPRP` has shrunken log2 fold change that meets 0.3 or exceeds it?
Satisfied

Could you please find out whether `RRIRDRPPRLPRPRPRPATWPRP` has shrunken log2 fold change that meets 0.3 or exceeds it?
Satisfied

Could you please find out whether `RRIRHRPPRLPRPRPRPKYIPRP` has shrunken log2 fold change that meets 0.3 or exceeds it?
Not satisfied

Could you please find out whether `RRIRQRPPRLPRPRPRPHYAPRP` has shrunken log2 fold change that meets 0.3 or exceeds it?
Not satisfied

Continuing:
Could you please find out whether `RRIRTRPPRLPRPRPRPWHVPRP` has shrunken log2 fold change that meets 0.3 or exceeds it?
Not satisfied

Could you please find out whether `RRIRYRPPRLPRPRPRPGRVPRP` has shrunken log2 fold change that meets 0.3 or exceeds it?
Not satisfied

Could you please find out whether `RRIRGRPPRLPRPRPRPETEPRP` has shrunken log2 fold change that meets 0.3 or exceeds it?
Satisfied

Could you please find out whether `RRIRSRPPRLPRPRPRPAQFPRP` has shrunken log2 fold change that meets 0.3 or exceeds it?
Not satisfied

Could you please find out whether `RRIRQRPPRLPRPRPRPERDPRP` has shrunken log2 fold change that meets 0.3 or exceeds it?
Satisfied

Could you please find out whether `RRIRHRPPRLPRPRPRPYNKPRP` has shrunken log2 fold change that meets 0.3 or exceeds it?
Not satisfied

Could you please find out whether `RRIRERPPRLPRPRPRPFLLPRP` has shrunken log2 fold change that meets 0.3 or exceeds it?
Not satisfied

Could you please find out whether `RRIRNRPPRLPRPRPRPMWYPRP` has shrunken log2 fold change that meets 0.3 or exceeds it?
Not satisfied

Could you please find out whether `RRIRKRPPRLPRPRPRPTCQPRP` has shrunken log2 fold change that meets 0.3 or exceeds it?
Satisfied

Could you please find out whether `RRIRTRPPRLPRPRPRPACTPRP` has shrunken log2 fold change that meets 0.3 or exceeds it?
Not satisfied
